Where these numbers come from: patent US20030224390A1

Target: T1, Gal4 transcriptional activation domain (AD) fused in frame with AR (pGAD-C2) (yeast, UniProt P10275 1-920, limits assumed)
T1 sequence (looked up): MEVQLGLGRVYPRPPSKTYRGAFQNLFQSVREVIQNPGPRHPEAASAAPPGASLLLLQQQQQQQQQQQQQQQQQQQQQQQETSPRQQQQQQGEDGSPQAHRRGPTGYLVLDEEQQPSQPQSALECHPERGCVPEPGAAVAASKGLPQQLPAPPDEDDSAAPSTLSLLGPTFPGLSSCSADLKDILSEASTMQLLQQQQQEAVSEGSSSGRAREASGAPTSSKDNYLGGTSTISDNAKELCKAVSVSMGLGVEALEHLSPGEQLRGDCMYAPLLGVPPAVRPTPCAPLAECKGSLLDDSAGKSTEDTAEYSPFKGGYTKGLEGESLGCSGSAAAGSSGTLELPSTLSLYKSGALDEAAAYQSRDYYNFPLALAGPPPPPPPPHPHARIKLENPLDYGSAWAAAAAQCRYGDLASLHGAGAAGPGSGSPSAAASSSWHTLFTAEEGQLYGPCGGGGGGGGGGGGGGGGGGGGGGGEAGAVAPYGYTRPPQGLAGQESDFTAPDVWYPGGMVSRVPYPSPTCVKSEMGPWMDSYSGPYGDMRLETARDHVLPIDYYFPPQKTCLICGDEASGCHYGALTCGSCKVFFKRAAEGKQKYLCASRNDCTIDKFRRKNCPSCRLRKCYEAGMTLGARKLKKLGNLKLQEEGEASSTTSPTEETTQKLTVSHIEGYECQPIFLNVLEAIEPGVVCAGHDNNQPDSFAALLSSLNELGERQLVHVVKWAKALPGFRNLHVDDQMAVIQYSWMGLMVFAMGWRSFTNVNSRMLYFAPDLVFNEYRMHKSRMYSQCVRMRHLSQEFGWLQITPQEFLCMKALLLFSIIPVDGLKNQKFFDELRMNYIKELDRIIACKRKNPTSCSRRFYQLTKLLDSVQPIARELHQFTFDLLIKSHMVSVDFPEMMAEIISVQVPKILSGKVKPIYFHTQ
Experiment: cell-based or functional assay
Would you mind telling me the reported β-galactosidase activity, yeast two-hybrid; DHT of each entry?
Answers are plain numbers.

binder: B2A7 (peptide) MKLLSSIEQACDICRLKKLKCSKEKPKCAKCLKNNWECRYSPKTKRSPLTRAHLTEVESRLERLEQLFLLIFPREDLDMILKMDSLQDIKALLTGLFVQDNVNKDAVTDRLASVETDMPLTLRQHRISATSSSEESSNKGQRQLTVSEFPELLAMTRWGRHAALLEPQRLPPPRTTTQPQTEFERMFFFTRPMRTTGLLDLQPS
test result: 1.72
--
binder: B8A10 (peptide) MKLLSSIEQACDICRLKKLKCSKEKPKCAKCLKNNWECRYSPKTKRSPLTRAHLTEVESRLERLEQLFLLIFPREDLDMILKMDSLQDIKALLTGLFVQDNVNKDAVTDRLASVETDMPLTLRQHRISATSSSEESSNKGQRQLTVSEFVNWDAVVPWSELVALLDLQPS
test result: 0.616
--
binder: M4D1 (peptide) MKLLSSIEQACDICRLKKLKCSKEKPKCAKCLKNNWECRYSPKTKRSPLTRAHLTEVESRLERLEQLFLLIFPREDLDMILKMDSLQDIKALLTGLFVQDNVNKDAVTDRLASVETDMPLTLRQHRISATSSSEESSNKGQRQLTVSEFRFPFHEMVREWESMGLERVRYAEP
test result: 0.395

Lookup: # query: β-galactosidase activity, yeast two-hybrid; DHT of entry M2H3 (peptide) MKLLSSIEQACDICRLKKLKCSKEKPKCAKCLKNNWECRYSPKTKRSPLTRAHLTEVESRLERLEQLFLLIFPREDLDMILKMDSLQDIKALLTGLFVQDNVNKDAVTDRLASVETDMPLTLRQHRISATSSSEESSNKGQRQLTVSEFRQSFVSEILGGGWLPLDLQPS
Found: 24.1
